Entry source: ChEMBL document CHEMBL4513216

Tested on: Plasmodium falciparum
Assay: Screen against P. falciparum Asexual Blood Stage (ABS), at 5uM
Type: functional, Dd2
Conditions: tested at 5 uM
About 2,100 (3.2%) of roughly 65,000 compounds showed an effect of 50% or more. The median lay at about -52%. The sample holds strong results, similar compounds and a random draw of the others, so the mix is not that of the screen.

Molecule	INHIBITION
Cc1cc(-c2cnc(N3CCN(C)CC3)nc2C(C)C)on1	52.5%
Cc1cc(-c2cnc(N3CCSCC3)nc2C(C)C)on1	63.8%
Cc1ccc(CS(=O)(=O)NCc2ccco2)cc1	-31.4%
CN(C)C(=O)c1ccc2c(c1)nc(N1CC[C@H](O)C1)n2C	-58.1%
CCc1cnc(N)nc1NCCN1CCCCC1	51.1%
NC(=O)CC1CCN(C(=O)c2cccn2Cc2cccs2)CC1	-68.7%
Cc1cc(NC(=O)NCC(O)c2ccc(F)cc2)n(C)n1 (configuration not stated)	18.3%
COCCN(Cc1ccc(C)cc1)CC1CCOC1 (configuration not stated)	-104%
CC(Cn1ccnc1)NC(=O)C1(c2ccc(F)cc2)CCCC1 (configuration not stated)	-16.4%
c1cncc(CN2CC[C@@H]3[C@@H]2CCN3Cc2ccc3c(c2)OCO3)c1	59.5%
CC(O)CNc1c(NCc2ccco2)c(=O)c1=O (configuration not stated)	-192%
CCOC(=O)C1CN(CC2CC2)Cc2ncn(CC)c21 (configuration not stated)	14%
CC(C)CCN1Cc2c(C(=O)N3CCCC3)nn(C)c2C1	-58.9%
CN1CC[C@@H]2[C@@H]1CCN2Cc1ccc2c(c1)OCO2	43%
CN(C)[C@@H]1CCN(S(C)(=O)=O)[C@H]1Cc1ccccc1	19.4%
CCC(CN1CCCCC1)NC(=O)C1(c2ccc(F)cc2)CC1 (configuration not stated)	70%
Cc1oc(C)c(C(=O)NCc2cccnc2N(C)C)c1C	-69.8%
O=C(c1ccc[nH]1)N1C[C@@H]2CC[C@H]1CN(C1Cc3ccccc3C1)C2	-60.5%
Cn1cccc1CN1CCc2ncnc(-c3cccnc3)c2CC1	0.898%
COc1cc(C(=O)NCC2CC2)nc2c(C)cc(F)cc12	-103%
COc1cc(OC)cc(C(=O)Nc2ncnc3c2CCC3)c1	-80.8%
Cc1nc2ccccn2c1CC(=O)N[C@@H]1CC[C@@H](N2CCOCC2)[C@@H]1O	-72.5%
CCc1cnc(N)nc1NCCc1ccc(OC)cc1OC	-6.25%
CC(C)NC(=O)C1CCN(C(C)C(=O)N2CCc3sccc3C2)CC1 (configuration not stated)	-14.7%
CCOc1ncccc1CNC(=O)c1c(C)oc(C)c1C	58.4%
CC(CNC(=O)C1(c2ccc(F)cc2)CC1)CN1CCCC1=O (configuration not stated)	11.4%
Cc1oc(C)c(C(=O)NCc2ccccn2)c1C	-148%
CC(O)CNCc1c[nH]nc1-c1cc2ccccc2o1 (configuration not stated)	-15.3%
CCCc1nc(C)c(C(=O)NCCn2nc3ccccn3c2=O)s1	-201%
COc1ncccc1CNC1CCc2c(ccc(=O)n2C)C1 (configuration not stated)	-74.3%
CCc1cnc(C)nc1NCCN1CCOCC1	-11.8%
CC(C)N(C)[C@@H]1CCN(S(C)(=O)=O)[C@H]1Cc1ccccc1	54.9%
